Tested on: recombinant Cj1564 (Tlp3) periplasmic sensory domain peptide
assay procedure: 1H STD-NMR analysis, single ligand and competition
Format: binding, Campylobacter jejuni
run parameters: 283 K, ligand alone with Tlp3
Protocol: Recombinant Tlp3 (1 mg/mL, 100 µL) dissolved in D2O (99.99% D Cambridge Isotopes) containing 50 mM NaCl and 50 mM KH2PO4 and added to various ligands (1 mg/mL, 150 µL ∼150 mole equivalents) also dissolved in D2O (99.99% D Cambridge Isotopes) containing 50 mM NaCl and 50 mM KH2PO4 to give a total volume of 250 µL in a 3 mm NMR tube for NMR analysis. Control samples were prepared in an identical manner without Tlp3 added. […]
metric: STD-NMR binding to Tlp3 (in words)

Record excerpt, results attached:
{"compound": "N[C@H]1C(O)O[C@H](CO)[C@@H](O)[C@@H]1O (stereo partly drawn) [Glucosamine]", "metric": "STD-NMR binding to Tlp3 (in words)", "endpoint result": "No signals were detected"}
{"compound": "c1ncc2nc[nH]c2n1 [Purine]", "metric": "STD-NMR binding to Tlp3 (in words)", "endpoint result": "Binding was observed"}
{"compound": "O=C(O)CC(O)C(=O)O (stereo not drawn) [Malic Acid]", "metric": "STD-NMR binding to Tlp3 (in words)", "endpoint result": "No signals were detected"}
{"compound": "CC[C@H](C)[C@H](N)C(=O)O [Isoleucine]", "metric": "STD-NMR binding to Tlp3 (in words)", "endpoint result": "Binding was observed"}
{"compound": "N=C(N)NCCC[C@H](N)C(=O)O [Arginine]", "metric": "STD-NMR binding to Tlp3 (in words)", "endpoint result": "Binding was observed"}

Continue with the compound presented below.
## Task Report STD-NMR binding to Tlp3 (in words) on recombinant Cj1564 (Tlp3) periplasmic sensory domain peptide for this entry: NCCCC[C@H](N)C(=O)O [Lysine]
## Result Binding was observed
